All values here come from patent US4297369A.

// reported Anti-inflammatory Activity, % Inhibition per item
system: carrageenin hind paw edema in rats; experiment: Anti-inflammatory activity: carrageenin paw edema; type: in vivo, male Wistar rats; conditions: 300 mg/Kg p.o., edema 3 hr after carrageenin, vs control
Kindly provide the numeric value in % only, without the unit symbol.

These recorded examples may help you get a feel for the data.
smiles-repr | Anti-inflammatory Activity, % Inhibition / %
Cc1c(CC(=O)N(C)C)oc2ccc(-c3ccccc3)cc12 | 20.4
Cc1ccc2oc(CC(=O)N(C)C)c(C)c2c1 | 10.2
Cc1c(CC(=O)N(C)C)oc2ccc(F)cc12 | 31.2

Okay, now this molecule:
Suppose we examine the molecule COc1ccc2oc(CC(=O)N(C)C)c(C)c2c1 ; what Anti-inflammatory Activity, % Inhibition value has been reported?
23.3

---

Some compounds, each annotated with its measured No. of falling mice/five tested mice, slant test.
tested on: mice; assay: Muscle relaxant activity: slant test; format: in vivo, male dd mice; details: 300 mg/kg p.o., 4 hr after administration
Lab book: enter the figure in mice/five tested mice, no units written.

compound | target-or-system | result-value
Cc1c(CC(=O)N(C)C)oc2ccc(F)cc12 [D] | mice | 1
COc1ccc2oc(CC(=O)N(C)C)c(C)c2c1 [A] | mice | 0
Cc1ccc2oc(CC(=O)N(C)C)c(C)c2c1 [B] | mice | 0

Below: the item to evaluate.
Given the entry Cc1c(CC(=O)N(C)C)oc2ccc(-c3ccccc3)cc12 [C] , report its measured No. of falling mice/five tested mice, slant test.
0

---

test system: mice; experiment: Muscle relaxant activity: slant test; type: in vivo, male dd mice; conditions: 300 mg/kg p.o., 2 hr after administration
quantity: No. of falling mice/five tested mice, slant test (mice/five tested mice)
Give your result in mice/five tested mice as a bare value.

What does the record list as No. of falling mice/five tested mice, slant test for COc1ccc2oc(CC(=O)N(C)C)c(C)c2c1 ?
1.5

Entry Cc1ccc2oc(CC(=O)N(C)C)c(C)c2c1 please
4

// same read-out, input: Cc1c(CC(=O)N(C)C)oc2ccc(F)cc12
4.5

Same lookup for Cc1c(CC(=O)N(C)C)oc2ccc(-c3ccccc3)cc12 , please.
1.5

---

Test: Acute toxicity, oral, mice
Details: mouse, in vivo, p.o., 7 days mortality
Description: Male dd mice weighing 19-21 g and male Wistar rats weighing 170-190 g were used in groups of 3-6 animals. The drugs were suspended in a 0.3% carboxymethyl cellulose solution and administered orally. […] As the reference compound, benzydamine.HCl was dissolved in water and administered orally. (In Example, 6, 7 and 8, the drugs and benzydamine. HCl were also administered in the same manner.
Structures can show the parent of a compound that is named as a salt.
quantity: LD50 at 168 h

molecule | result-value
Cc1c(CC(=O)N(C)C)oc2ccc(F)cc12 [D] | > 1000 mg/kg

// returns reported LD50 at 168 h for input CN(C)CCCOc1nn(Cc2ccccc2)c2ccccc12 [Benzydamine . HCl, reference compound]
500 to 1000 mg/kg

Next record, please: COc1ccc2oc(CC(=O)N(C)C)c(C)c2c1 [A]
> 1000 mg/kg

What would you report for Cc1ccc2oc(CC(=O)N(C)C)c(C)c2c1 [B] ?
> 3000 mg/kg

Same question, Cc1c(CC(=O)N(C)C)oc2ccc(-c3ccccc3)cc12 [C] this time
> 1000 mg/kg
